- Measurement Protocol: Diameter and PDI from DLS measurements of mRNA nanoparticles with lipid amines
- Format: physicochemical
- Assay Conditions: Luciferase mRNA nanoparticle modified with lipid amine
Structures can show the parent of a compound that is named as a salt.
Reported PDI values for a set of molecules
Form field (numeric): enter value without unit.

Example entries and their recorded answers appear below.
CC(C)CCC[C@@H](C)[C@H]1CC[C@H]2[C@@H]3CC=C4C[C@@H](SSCCC(=O)N(CCCCNCCC(C)(C)N)CCC(C)(C)N)CC[C@]4(C)[C@H]3CC[C@]12C.Cl.Cl.Cl ... 0.19
CC[C@H](CC[C@@H](C)[C@H]1CC[C@H]2[C@@H]3CC=C4C[C@@H](OC(=O)CCCC(=O)N(CCCCCCCC(C)N)CCC(C)N)CC[C@]4(C)[C@H]3CC[C@]12C)C(C)C (stereo partly drawn) [SA154, dihydrochloride] ... 0.18
CC[C@H](CC[C@@H](C)[C@H]1CC[C@H]2[C@@H]3CC=C4C[C@@H](OC(=O)N(CCCC(C)(C)N)CCC(C)(C)N)CC[C@]4(C)[C@H]3CC[C@]12C)C(C)C [SA149, dihydrochloride] ... 0.15
CC(C)CCC[C@@H](C)[C@H]1CC[C@H]2[C@@H]3CC=C4C[C@@H](OC(=O)[C@H](CCCCN)NCCCCCCN)CC[C@]4(C)[C@H]3CC[C@]12C.Cl.Cl.Cl ... 0.12
CC(C)CCC[C@@H](C)[C@H]1CC[C@H]2[C@@H]3CC=C4C[C@@H](SSCCC(=O)N(CCCN)CCCCCCCCN)CC[C@]4(C)[C@H]3CC[C@]12C [SA97, dihydrochloride] ... 0.16
CC(C)CCC[C@@H](C)[C@H]1CC[C@H]2[C@@H]3CC=C4C[C@@H](SSCCCCC(=O)N(CCCN)CCCCCCCCN)CC[C@]4(C)[C@H]3CC[C@]12C [SA110, dihydrochloride] ... 0.14
CC[C@H](CC[C@@H](C)[C@H]1CC[C@H]2[C@@H]3CC=C4C[C@@H](SSCCC(=O)N(CCCCCCCC(C)N)CCC(C)N)CC[C@]4(C)[C@H]3CC[C@]12C)C(C)C (stereo partly drawn) [SA178, dihydrochloride] ... 0.20
CC(C)CCC[C@@H](C)[C@H]1CC[C@H]2[C@@H]3CC=C4C[C@@H](OC(=O)CCCC(=O)N(CCCN)CCCCCCCCN)CC[C@]4(C)[C@H]3CC[C@]12C.Cl.Cl ... 0.13

Now consider a different molecule.
Check the records and state PDI for CC[C@H](CC[C@@H](C)[C@H]1CC[C@H]2[C@@H]3CC=C4C[C@@H](OC(=O)N(CCCN)CCCCN)CC[C@]4(C)[C@H]3CC[C@]12C)C(C)C [SA120, dihydrochloride]
0.28

====

- Test system: HeLa cells
- Measurement Protocol: Luciferase Protein Expression Assay in HeLa Cells
- Format: cell-based, Human
- Assay Conditions: LNPs encapsulating Luciferase mRNA, 25 ng per well, N=4 wells; 5 h serum-free then 24 h; ONE-Glo
Counter-ions that a name gives are not always drawn.
Property Name: Average Relative Light Units ± Standard Deviation (Relative Light Units)
Unit Relative Light Units implied. Number only.

CC(C)CCC[C@@H](C)[C@H]1CC[C@H]2[C@@H]3CC=C4C[C@@H](OC(=O)CN(CCCCCCCCN)C(=O)CCCCCN)CC[C@]4(C)[C@H]3CC[C@]12C [SA123, dihydrochloride] ... 28520.5

State its Average Relative Light Units ± Standard Deviation: CCC(N)CCNCCCCN(CCC(N)CC)C(=O)O[C@H]1CC[C@@]2(C)C(=CC[C@H]3[C@@H]4CC[C@H]([C@H](C)CCCC(C)C)[C@@]4(C)CC[C@@H]32)C1.Cl.Cl.Cl (stereo partly drawn) [SA127]
41246.9

Supply measured Average Relative Light Units ± Standard Deviation of CC[C@H](CC[C@@H](C)[C@H]1CC[C@H]2[C@@H]3CC=C4C[C@@H](OC(=O)N(CCCN)CCCCCCCCN)CC[C@]4(C)[C@H]3CC[C@]12C)C(C)C [SA69, dihydrochloride] in your reply.
35256.9

Report Average Relative Light Units ± Standard Deviation for C/C(=C/CCC(C)C)[C@H]1CC[C@H]2[C@@H]3CC=C4C[C@@H](OC(=O)N(CCCN)CCCCNCCCN)CC[C@]4(C)[C@H]3CC[C@]12C [SA70]
11822.1

Assign Average Relative Light Units ± Standard Deviation to the following record: CC(C)CCC[C@@H](C)[C@H]1CC[C@H]2[C@@H]3CC=C4C[C@@H](OC(=O)N(CCCCNCC(F)CN)CC(F)CN)CC[C@]4(C)[C@H]3CC[C@]12C (stereo partly drawn) [SA87, trihydrochloride]
13346.1

Report Average Relative Light Units ± Standard Deviation, nothing else, for this compound: CC[C@H](CC[C@@H](C)[C@H]1CC[C@H]2[C@@H]3CC=C4C[C@@H](OC(=O)N(CCCCNCCC(N)(CC)CC)CCC(N)(CC)CC)CC[C@]4(C)[C@H]3CC[C@]12C)C(C)C [SA183, trihydrochloride]
33915.2

State, in one line, measured Average Relative Light Units ± Standard Deviation of CC[C@H](CC[C@@H](C)[C@H]1CC[C@H]2[C@@H]3CC=C4C[C@@H](OC(=O)CCC(=O)N(CCCC(C)(C)N)CCC(C)(C)N)CC[C@]4(C)[C@H]3CC[C@]12C)C(C)C [SA167, dihydrochloride]
38742.4

Given the compound CC(C)CCC[C@@H](C)[C@H]1CC[C@H]2[C@@H]3CC=C4C[C@@H](OC(=O)CN(CCCCCCCCN)C(=O)CCCCN)CC[C@]4(C)[C@H]3CC[C@]12C [SA122, dihydrochloride] , write its reported Average Relative Light Units ± Standard Deviation.
29605.6

Give Average Relative Light Units ± Standard Deviation for the following compound: CC[C@H](CC[C@@H](C)[C@H]1CC[C@H]2[C@@H]3CC=C4C[C@@H](OC(=O)N(CCCCNCC(F)(F)CN)CC(F)(F)CN)CC[C@]4(C)[C@H]3CC[C@]12C)C(C)C [SA116, trihydrochloride]
110.9
